For each entry below, report its inhibition value.
# assay.system: Prostaglandin G/H synthase 1 (Ovis aries) (UniProt P05979)
# Sequence (P05979 whole entry): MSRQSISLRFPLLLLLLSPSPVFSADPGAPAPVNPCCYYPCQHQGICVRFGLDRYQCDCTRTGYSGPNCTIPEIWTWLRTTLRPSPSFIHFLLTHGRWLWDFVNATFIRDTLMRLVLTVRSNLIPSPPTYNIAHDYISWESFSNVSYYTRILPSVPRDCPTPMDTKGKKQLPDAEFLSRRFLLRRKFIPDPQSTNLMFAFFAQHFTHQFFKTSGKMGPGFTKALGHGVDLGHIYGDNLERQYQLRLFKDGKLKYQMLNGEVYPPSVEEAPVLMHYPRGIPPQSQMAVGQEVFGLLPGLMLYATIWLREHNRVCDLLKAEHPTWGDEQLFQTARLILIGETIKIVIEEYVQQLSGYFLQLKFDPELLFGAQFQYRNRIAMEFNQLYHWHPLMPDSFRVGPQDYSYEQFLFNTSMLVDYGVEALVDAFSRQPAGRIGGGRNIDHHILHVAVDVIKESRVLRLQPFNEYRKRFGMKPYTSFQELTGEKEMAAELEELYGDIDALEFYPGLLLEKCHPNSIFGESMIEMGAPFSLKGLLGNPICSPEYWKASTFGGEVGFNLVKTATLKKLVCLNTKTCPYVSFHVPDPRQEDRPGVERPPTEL
# protocol: Inhibition of ovine COX1 using arachidonic acid as substrate at 1 uM preincubated for 5 mins measured after 2 mins by colorimetric analysis
Numbers only, in %.

Provide inhibition for all items below, preserving their order.
1. NS(=O)(=O)c1ccc(N2C(=O)C(Cl)=C(Nc3cccc(F)c3)C2=O)cc1
2. NS(=O)(=O)c1ccc(N2C(=O)C(Cl)=C(Nc3cccc(Cl)c3Cl)C2=O)cc1

**A:**
[0.89, 4.01]

Report inhibition for every entry below.
1. NS(=O)(=O)c1ccc(N2C(=O)C(Cl)=C(N3CCCCC3)C2=O)cc1
2. COc1ccccc1NC1=C(Cl)C(=O)N(c2ccc(S(N)(=O)=O)cc2)C1=O
3. NS(=O)(=O)c1ccc(N2C(=O)C(Cl)=C(Nc3cccc(Cl)c3)C2=O)cc1
4. NS(=O)(=O)c1ccc(N2C(=O)C(Cl)=C(Nc3ccc(C(F)(F)F)cc3)C2=O)cc1
5. COc1ccc(NC2=C(Cl)C(=O)N(c3ccc(S(N)(=O)=O)cc3)C2=O)cc1
6. NS(=O)(=O)c1ccc(N2C(=O)C(Cl)=C(Nc3ccccc3)C2=O)cc1
7. Cc1cc(C)cc(NC2=C(Cl)C(=O)N(c3ccc(S(N)(=O)=O)cc3)C2=O)c1
8. Cc1ccccc1NC1=C(Cl)C(=O)N(c2ccc(S(N)(=O)=O)cc2)C1=O

**A:**
[0.44, 7.14, 0.89, 4.01, 0.89, 0.89, 0.44, 6.25]

====

# protocol: Selectivity index, ratio of inhibition of human recombinant COX2 to inhibition of ovine COX1
Provide the reported Selectivity Index of each item.
Numbers only.

Observe how each entry below is paired with its result.
NS(=O)(=O)c1ccc(N2C(=O)C(Cl)=C(Nc3ccc(Cl)cc3)C2=O)cc1 2.6
NS(=O)(=O)c1ccc(N2C(=O)C(Cl)=C(Nc3ccccc3)C2=O)cc1 44.5
COc1cccc(NC2=C(Cl)C(=O)N(c3ccc(S(N)(=O)=O)cc3)C2=O)c1 49.7
COc1ccc(NC2=C(Cl)C(=O)N(c3ccc(S(N)(=O)=O)cc3)C2=O)cc1 11.9
NS(=O)(=O)c1ccc(N2C(=O)C(Cl)=C(Nc3ccc(Cl)c(Cl)c3)C2=O)cc1 3.78

# per-item lookup of Selectivity Index; items listed below
1. NS(=O)(=O)c1ccc(N2C(=O)C(Cl)=C(Nc3ccc(C(F)(F)F)cc3)C2=O)cc1
2. NS(=O)(=O)c1ccc(N2C(=O)C(Cl)=C(Nc3cccc(Cl)c3Cl)C2=O)cc1
3. NS(=O)(=O)c1ccc(N2C(=O)C(Cl)=C(Cl)C2=O)cc1

**A:**
1: 6.78; 2: 6.78; 3: 0.611
